Measured values drawn from patent US11174250B2 for this set.

# measurementTarget: UniProt P61964
# method: Surface Plasmon Resonance (SPR) assay
# Type: binding
# conditions: SPR, Table 2; read-out: WDR5 binding affinity SPR (KD)
assayEndpoint: Kd (nM)

Study these solved cases before continuing.
What value of Kd has been recorded for this entry: CN1CCN(c2ccc(-c3cc(C(=O)NC4CCCCC4)ccc3F)cc2NC(=O)c2c[nH]c(=O)cc2C(F)(F)F)CC1
6

What value of Kd has been recorded for this entry: C[C@@H]1CN(c2ccc(-c3cc(OCC4CC4)ncc3F)cc2NC(=O)c2c[nH]c(=O)cc2C(F)(F)F)C[C@H](C)N1C
4

What value of Kd has been recorded for this entry: C[C@@H]1CN(c2ccc(-c3cc(C(N)=O)ccc3F)cc2NC(=O)c2c[nH]c(=O)cc2C(F)(F)F)C[C@H](C)N1C
4

What value of Kd has been recorded for this entry: CN1CCN(c2ccc(-c3cc(CN4CCN(Cc5ccc(F)cc5)CC4)ccc3F)cc2NC(=O)c2c[nH]c(=O)cc2C(F)(F)F)CC1
7.7

What value of Kd has been recorded for this entry: C[C@H]1CN(c2ccc(-c3ncccc3F)cc2NC(=O)c2c[nH]c(=O)cc2C(F)(F)F)CCN1C
3

a = CN1CCN(c2ccc(-c3cc(CNC4CCOCC4)ccc3F)cc2NC(=O)c2c[nH]c(=O)cc2C(F)(F)F)CC1
b = Cc1cc(C(=O)Nc2cc(-c3cc(CN4CCOCC4)ccc3F)ccc2N2CCCN(C)CC2)cc(C)c1F
c = C[C@@H]1CN(c2ccc(-c3cc(C(=O)N(C)C4CCCCC4)ccc3F)cc2NC(=O)c2c[nH]c(=O)cc2C(F)(F)F)C[C@H](C)N1C
d = C[C@@H]1CN(c2ccc(-c3nc(N4CCOCC4)ncc3F)cc2NC(=O)c2c[nH]c(=O)cc2C(F)(F)F)C[C@H](C)N1C
e = COc1cccc(C(=O)Nc2cc(-c3cc(CN4CCOCC4)ccc3F)ccc2N2CCN(C)CC2)c1
Rank the items in ascending order with respect to Kd. # the answer lists labels in the order requested
d, a, c, b, e

###

# measurementTarget: MLL1-WRAD2 complex (Homo sapiens (Human))
# method: MLL1-WRAD2 enzyme assay (in vitro methyl transferase assay)
# Type: biochemical
# conditions: MLL1-WRAD2 assay; read-out: In vitro MLL1 activity (IC50)
assayEndpoint: IC50 (µM)

Study these solved cases before continuing.
What value of IC50 has been recorded for this entry: C[C@@H]1CN(c2ccc(-c3c(F)ccc(CNC4CCCCC4)c3F)cc2NC(=O)c2c[nH]c(=O)cc2C(F)(F)F)C[C@H](C)N1C
11.1

What value of IC50 has been recorded for this entry: CN1CCN(c2ccc(-c3cc(CN4CCOCC4)cnc3F)cc2NC(=O)c2c[nH]c(=O)cc2C(F)(F)F)CC1
4.49

What value of IC50 has been recorded for this entry: C[C@@H]1CN(c2ccc(-c3cc(CNC4CCCCC4)ccc3F)cc2NC(=O)c2c[nH]c(=O)cc2C(F)(F)F)C[C@H](C)N1C
0.514

What value of IC50 has been recorded for this entry: CN1CCN(c2ccc(-c3cc(CN4C5COCC4C5)ccc3F)cc2NC(=O)c2c[nH]c(=O)cc2C(F)(F)F)CC1
1.75

I = CN1CCN(c2ccc(-c3cc(CN(C)C4COC4)ccc3F)cc2NC(=O)c2c[nH]c(=O)cc2C(F)(F)F)CC1
II = CN1CCN(c2ccc(-c3cc(C(=O)N(C)C4CCCCC4)ccc3F)cc2NC(=O)c2c[nH]c(=O)cc2C(F)(F)F)CC1
III = CN1CCN(c2ccc(-c3ccc(CNC4CCCCC4)cc3F)cc2NC(=O)c2c[nH]c(=O)cc2C(F)(F)F)CC1
IV = CN1CCN(c2ccc(-c3cc(CN4CCN(CC5CC5)CC4)ccc3F)cc2NC(=O)c2c[nH]c(=O)cc2C(F)(F)F)CC1
Rank the items in ascending order with respect to IC50. # the answer lists labels in the order requested
II, IV, I, III
(II: 0.607 µM, IV: 1.1 µM, I: 3.25 µM, III: 13.7 µM)
